From: patent US9334269B2

# key: entry, value: IC50
Molecular target: human Nav1.7 (hNav1.7) (Homo sapiens, UniProt Q15858)
Construct: expressed in transfected cells
Sequence (Q15858 whole entry): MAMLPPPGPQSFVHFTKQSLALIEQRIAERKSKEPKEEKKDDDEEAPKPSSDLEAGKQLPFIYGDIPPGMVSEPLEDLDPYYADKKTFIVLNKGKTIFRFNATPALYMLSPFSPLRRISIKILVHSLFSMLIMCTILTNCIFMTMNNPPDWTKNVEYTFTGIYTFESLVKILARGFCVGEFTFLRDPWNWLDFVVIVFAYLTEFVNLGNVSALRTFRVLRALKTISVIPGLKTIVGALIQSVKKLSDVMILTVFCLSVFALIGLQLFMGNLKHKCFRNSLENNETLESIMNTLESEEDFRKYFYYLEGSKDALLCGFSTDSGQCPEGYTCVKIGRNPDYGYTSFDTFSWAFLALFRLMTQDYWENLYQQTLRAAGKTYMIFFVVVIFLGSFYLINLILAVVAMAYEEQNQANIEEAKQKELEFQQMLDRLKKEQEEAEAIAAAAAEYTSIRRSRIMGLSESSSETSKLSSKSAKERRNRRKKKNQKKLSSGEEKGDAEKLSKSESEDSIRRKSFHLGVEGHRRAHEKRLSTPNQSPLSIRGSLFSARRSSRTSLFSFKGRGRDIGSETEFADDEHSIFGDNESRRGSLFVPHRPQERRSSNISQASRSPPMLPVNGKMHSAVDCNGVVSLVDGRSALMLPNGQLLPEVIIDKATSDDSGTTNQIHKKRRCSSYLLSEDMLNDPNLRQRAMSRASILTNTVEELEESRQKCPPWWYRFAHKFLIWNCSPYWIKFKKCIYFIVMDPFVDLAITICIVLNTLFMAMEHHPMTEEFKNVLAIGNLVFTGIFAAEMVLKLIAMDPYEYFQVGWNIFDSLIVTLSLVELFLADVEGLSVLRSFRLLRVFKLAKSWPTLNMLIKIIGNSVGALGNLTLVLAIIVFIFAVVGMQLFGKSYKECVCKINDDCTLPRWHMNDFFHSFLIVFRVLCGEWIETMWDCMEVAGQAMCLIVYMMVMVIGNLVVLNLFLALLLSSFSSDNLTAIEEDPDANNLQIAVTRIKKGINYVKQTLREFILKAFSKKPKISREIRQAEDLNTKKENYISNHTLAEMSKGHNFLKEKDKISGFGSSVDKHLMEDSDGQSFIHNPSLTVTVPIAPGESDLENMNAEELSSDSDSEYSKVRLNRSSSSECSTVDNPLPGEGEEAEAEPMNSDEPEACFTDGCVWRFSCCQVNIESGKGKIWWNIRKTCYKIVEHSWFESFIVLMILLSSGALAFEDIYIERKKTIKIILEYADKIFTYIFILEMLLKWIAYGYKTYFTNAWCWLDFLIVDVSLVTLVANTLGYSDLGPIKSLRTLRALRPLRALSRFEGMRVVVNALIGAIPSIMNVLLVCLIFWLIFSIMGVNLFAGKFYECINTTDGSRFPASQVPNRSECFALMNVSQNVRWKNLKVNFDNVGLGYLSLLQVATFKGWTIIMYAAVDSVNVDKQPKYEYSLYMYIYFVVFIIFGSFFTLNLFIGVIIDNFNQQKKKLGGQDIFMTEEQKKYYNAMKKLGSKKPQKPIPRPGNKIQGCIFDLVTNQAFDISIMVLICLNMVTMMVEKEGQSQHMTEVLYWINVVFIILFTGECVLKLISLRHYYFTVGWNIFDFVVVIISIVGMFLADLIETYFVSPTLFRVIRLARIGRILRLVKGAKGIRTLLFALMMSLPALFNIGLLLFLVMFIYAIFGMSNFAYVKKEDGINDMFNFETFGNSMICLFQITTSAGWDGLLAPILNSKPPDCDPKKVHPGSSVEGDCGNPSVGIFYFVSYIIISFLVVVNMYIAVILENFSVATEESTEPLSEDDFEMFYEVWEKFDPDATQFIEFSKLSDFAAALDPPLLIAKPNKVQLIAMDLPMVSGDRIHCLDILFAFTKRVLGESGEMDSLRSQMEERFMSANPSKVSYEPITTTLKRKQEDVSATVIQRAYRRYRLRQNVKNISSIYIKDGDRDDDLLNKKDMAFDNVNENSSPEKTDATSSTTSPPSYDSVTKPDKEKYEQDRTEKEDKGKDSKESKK
Experiment: hNav1.7 whole-cell patch-clamp electrophysiology (automated PatchXpress 7000A or manual) in stably expressing 293 cells
Assay type: cell-based
Conditions: average IC50, human Nav1.7
Experimental: Compounds were tested on human Nav1.7 (hNav1.7) expressed stably in 293 cells, which have no endogenous sodium channels. Two forms of whole-cell patch-clamp assays were used. In both, peak current through Nav1.7 was evoked by a depolarizing voltage pulse, and currents were monitored as a function of time in response to exposure to several different concentrations of drug. Automated electrophysiology uses the PatchXpress 7000A system. […] IC50 were determined by fitting to the Hill equation.
readout: IC50

CNC(=O)c1cccc(Nc2ncnc(N3CCN(c4ccccc4)CC3)n2)c1 [Example 115] ... 1.87 µM
CNC(=O)c1cccc(Nc2ncnc(N3CCc4cc(C5CC5)ccc4C3)n2)c1 [Example 92] ... 1.29 µM
CNC(=O)c1cccc(Nc2ncnc(N3CCC(n4cc(-c5ccccc5)cn4)CC3)n2)c1 [Example 139] ... 2.74 µM
CNC(=O)c1cccc(Nc2ncnc(N3CC(Oc4ccc(C)cc4Cl)C3)n2)c1 [Example 32] ... 0.44 µM

###

Biological target: human Nav1.7 (hNav1.7) (Homo sapiens, UniProt Q15858)
Construct: expressed in transfected cells
Experiment: hNav1.7 whole-cell patch-clamp electrophysiology (automated PatchXpress 7000A or manual) in stably expressing 293 cells
Format: cell-based
Conditions: average IC50, human Nav1.7
Method: Compounds were tested on human Nav1.7 (hNav1.7) expressed stably in 293 cells, which have no endogenous sodium channels. Two forms of whole-cell patch-clamp assays were used. In both, peak current through Nav1.7 was evoked by a depolarizing voltage pulse, and currents were monitored as a function of time in response to exposure to several different concentrations of drug. Automated electrophysiology uses the PatchXpress 7000A system. […] IC50 were determined by fitting to the Hill equation.
# key: entry, value: IC50
readout: IC50 (µM)

CNC(=O)c1cccc(Nc2ncnc(N3CC=C(c4ccc(C)c(C)c4)CC3)n2)c1 [Example 133] ... 2.55
CNC(=O)c1cccc(Nc2ncnc(N3CCCN(Cc4ccccc4)CC3)n2)c1 [Example 203] ... 7.42
CNC(=O)c1cccc(Nc2ncnc(N3CCN(c4ccc(Cl)cc4)CC3)n2)c1 [Example 157] ... 3.36
CNC(=O)c1cccc(Nc2ncnc(N3CC=C(c4ccc(C#N)cc4)CC3)n2)c1 [Example 99] ... 1.43
CNC(=O)c1cccc(Nc2ncnc(N3CCC(c4nc(-c5ccccc5)cs4)CC3)n2)c1 [Example 24] ... 0.38
CNC(=O)c1cc(Nc2ncnc(N3CCC(c4nc(-c5ccccc5)cs4)CC3)n2)ccc1Cl [Example 27] ... 0.4
CNC(=O)c1cc(Nc2ncnc(NCCCOc3ccc(OC(F)(F)F)cc3)n2)ccc1F [Example 64] ... 0.83
CNC(=O)c1cccc(Nc2ncnc(N3CCN(c4cccc(C)c4C)CC3)n2)c1 [Example 81] ... 1.03
CNC(=O)c1cccc(Nc2ncnc(N3CCc4c(cccc4OCCOC)C3)n2)c1 [Example 252] ... 15
CNC(=O)c1cccc(Nc2ncnc(N3CCC(Oc4ccccc4Cl)CC3)n2)c1 [Example 85] ... 1.17
CNC(=O)c1cccc(Nc2ncnc(N3CCc4c(cnn4-c4ccc(Cl)cc4)C3)n2)c1 [Example 144] ... 2.87
CNC(=O)c1cccc(Nc2ncnc(N3CCc4c(cccc4OC)C3)n2)c1 [Example 138] ... 2.74
CNC(=O)c1cccc(Nc2ncnc(N3CCc4cc(OC(F)(F)F)ccc4C3)n2)c1 [Example 110] ... 1.67
CNC(=O)c1cccc(Nc2ncnc(N3CC(Oc4ccc(Cl)cc4Cl)C3)n2)c1 [Example 51] ... 0.65
CNC(=O)c1cccc(Nc2ncnc(N3CCc4c(cccc4OC(F)(F)F)C3)n2)c1 [Example 123] ... 2.13
CNC(=O)c1cccc(Nc2ncnc(N3CCN(CCc4ccccc4)CC3)n2)c1 [Example 109] ... 1.63
CNC(=O)c1cccc(Nc2ncnc(NCCCOc3ccc(OC(F)(F)F)cc3)n2)c1C [Example 156] ... 3.34
CNC(=O)c1cccc(Nc2ncnc(N3CCC(Oc4ccc(OC(F)(F)F)cc4)CC3)n2)c1 [Example 58] ... 0.76
CNC(=O)c1cccc(Nc2ncnc(N3CC=C(c4csc(-c5ccccc5)n4)CC3)n2)c1 [Example 46] ... 0.63
CNC(=O)c1cccc(Nc2ncnc(N3CCC(c4ccc(C#N)c(OC(F)(F)F)c4)CC3)n2)c1 [Example 248] ... 12.9
NC(=O)c1cccc(Nc2ncnc(N3CC(Oc4ccc(F)cc4)C3)n2)c1 [Example 237] ... 10.7
CNC(=O)c1cccc(Nc2ncnc(N3CC(Oc4ccc(F)cc4Cl)C3)n2)c1 [Example 54] ... 0.72
NC(=O)c1cccc(Nc2ncnc(N3CCc4ccccc4C3)n2)c1 [Example 235] ... 10.3
CNC(=O)c1cccc(Nc2ncnc(N3CCN(c4cccc(C)c4)CC3)n2)c1 [Example 114] ... 1.83
CNC(=O)c1cccc(Nc2ncnc(N3CCC(Oc4ccccn4)CC3)n2)c1 [Example 175] ... 4.63
CNC(=O)c1cccc(Nc2nccc(N3CC(Oc4ccc(Cl)cc4)C3)n2)c1 [Example 30] ... 0.43
CNC(=O)c1cccc(Nc2ncnc(N3CCC(Nc4ccccc4)CC3)n2)c1 [Example 257] ... 16.9
CNC(=O)c1cccc(Nc2ncnc(N3CC(Oc4ccccc4)C3)n2)c1 [Example 33] ... 0.45
CNC(=O)c1cccc(Nc2ncnc(N3CCC(Oc4ccc(F)c(OC(F)(F)F)c4)CC3)n2)c1 [Example 193] ... 5.79
CNC(=O)c1cccc(Nc2ncnc(N3CCC(Oc4cccc(OC(F)(F)F)c4)CC3)n2)c1 [Example 119] ... 2.07
COCCNC(=O)c1cccc(Nc2ncnc(N3CC(Oc4ccc(F)cc4)C3)n2)c1 [Example 38] ... 0.5
CNC(=O)c1cccc(Nc2ncnc(N3CC(c4ccc(Cl)cc4)C3)n2)c1 [Example 184] ... 5.23
CNC(=O)c1cc(Nc2ncnc(NCCCOc3ccc(OC(F)(F)F)cc3)n2)ccc1Cl [Example 75] ... 0.96
CNC(=O)c1cccc(Nc2ncnc(N3CC(Oc4cccc(-c5ccccc5)c4)C3)n2)c1 [Example 199] ... 7.02
